- target-or-test-system: OTU domain-containing protein 3 (Homo sapiens)
- protocol-notes: Validation of screening hits, potency titration, in vitro enzymatic, OTU domain-containing protein 3 DUB inhibitors (AID 1645868)
- applied-conditions: purified OTUD3, ubiquitin-rhodamine cleavage fluorescence, 2 h
Activity calls are given as the source filed them.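 How the source made its calls: active means maximal percent inhibition of the deubiquitinase OTUD3 of at least 30% across the tested doses; inactive means the rest.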
Answer with one of the outcomes active, inactive

// outcome(item) with item = Cc1cc(=O)n(CC(=O)NCc2ccccc2F)c2c1c(C)nn2-c1ccccc1
active

// outcome(item) with item = Cc1cccc(NC(=O)Cn2c(-c3cnccn3)nc(C)c(C)c2=O)c1C
inactive

// outcome(item) with item = COc1ccc(CCNC(=O)COc2ncnc3oc(C)c(C)c23)cc1OC
inactive

// outcome(item) with item = Cn1nc(-c2ccccc2)c(COC(=O)c2ccc([N+](=O)[O-])cc2)c1Cl
inactive

// outcome(item) with item = C=C1CCC2[C@](C)(CCC[C@]2(C)C(=O)OC)[C@H]1CCc1ccoc1CNC(C)C (some centres undefined)
inactive
